test system: HL-60(TB) leukemia; experiment: NCI-60 one-dose screen, 48 h (100 = growth as untreated, 0 = no growth, -100 = all killed); conditions: 10 µM unless noted
This is part of a sample that, as a whole, favours compounds with a hit. Of some 83,000 tested, about 20% had one in any assay.
MEASURE: growth (%)
One number for each entry, in %.

Example entries begin here.
• Cc1ccc(Nc2nc(N)nc(N)c2N=O)cc1Cl = 67.9
• Cc1nc2sc(C(=O)Nc3cccc4ccccc34)c(N)c2cc1C(C)O (stereo not drawn) = -24.1
• O=[N+]([O-])c1ccc(S(=O)(=O)OCCCCOS(=O)(=O)c2ccc([N+](=O)[O-])cc2)cc1 = 101

# return growth for each item in the list
1. CC1(C)CCC(S(=O)(=O)c2ccc3c(c2)/C(=N\O)c2cc(S(=O)(=O)N4CCN(c5ccc(F)cc5O)CC4)ccc2-3)CC1
2. CCCC(CCC)(C(N)=O)C(=O)O

-70.7
104

# return growth for each item in the list
1. CCCCN(CCCC)CCC(=O)c1ccc(OC)c2ccccc12
2. Clc1ccc(SSC(Cl)(Cl)Cl)cc1
3. Nc1ccc(F)c(Cl)c1F
4. Cc1ccnc2c(OCc3ccccc3)cccc12
5. NC(CSC(c1ccccc1)(c1ccccc1)c1ccc2c(c1)OCO2)C(=O)O (stereo not drawn)
6. O=C(CSc1nc2ccc([N+](=O)[O-])cc2[nH]1)Nc1cccc(Cl)c1

1: 81.1; 2: 113; 3: 95.6; 4: 111; 5: -26.2; 6: 16.9

# return growth for each item in the list
1. O=c1[nH]cnc2nc[nH]c12
2. O=S(=O)(NCCNc1nccc(-c2c(-c3ccccc3)nc3sccn23)n1)c1ccc(O)cc1
3. Cn1ccnc1C(=O)/C=C/c1ccc(CC(=O)Nc2ccc(Br)cc2)cc1
4. COc1c(B(O)O)cc(F)cc1-c1nc2ccc3[nH]ncc3c2c2c1CCCC2
5. CSc1ncc2ncn(C3OC(CO)C(O)C3O)c2n1 (stereo not drawn)

117
68
0.748
-2.38
114

# return growth for each item in the list
1. COc1cc2c(cc1O)CCN1C[C@@H](CC(C)C)[C@@H](O)C[C@@H]21
2. Cc1ccc(Nc2cc(Cl)c([N+](=O)[O-])cc2[N+](=O)[O-])cc1
3. COc1cc(/C=C\C(=O)O)ccc1OCc1ccccc1
4. O=C(Nc1ccc(Cl)cc1)Nc1nc2ccc(OC(F)(F)F)cc2o1
5. NC(=O)c1cccc(-n2ccc3cc(NC(=O)Nc4cc(C(F)(F)F)cc(C(F)(F)F)c4)ccc32)n1
6. O=C(CCc1nnco1)c1nc2ccc([N+](=O)[O-])cc2[nH]1

1. 73.7
2. 6.39
3. 122
4. 83.3
5. 39.3
6. 120

# return growth for each item in the list
1. Cc1cc(Cl)nc(NCc2cc(Nc3ccnc4cc(Cl)ccc34)ccc2F)n1
2. CCCC(C)c1cc(Cc2cc(Cl)cc(Cl)c2O)c(O)c(Cc2cc(Cl)cc(Cl)c2O)c1 (stereo not drawn)
3. COc1cc(C2CC(=O)Nc3nc(N)[se]c32)c(OC)c2c1OCO2 (stereo not drawn)
4. CN(CCCCCl)P(=O)(OCc1ccc([N+](=O)[O-])o1)C(F)(F)C[C@H](NC(=O)CNC(=O)c1ccc(N=[N+]=[N-])cc1)C(=O)NCCc1ccc(O)cc1 (stereo partly drawn)
5. CC(=O)CC(=O)N(C)C

1: 42.4; 2: 4.98; 3: 84.4; 4: 62.6; 5: 114

# return growth for each item in the list
1. CNC(=O)c1ccccc1Nc1nc(Nc2cc(OC)c(OC)c(OC)c2)ncc1Br
2. C=CCn1c(C)nc2cc(Nc3nc(N4CCCC4)nc4ccccc34)ccc21
3. NC(=S)N/N=C/c1ncccc1O
4. O=C(/C=C(O)/C=C/c1ccc(SC(F)(F)F)cc1)/C=C/c1ccc(SC(F)(F)F)cc1

1. 19
2. 88.5
3. -23.2
4. 81.9

# return growth for each item in the list
1. O=C(/C=C/C12c3ccccc3C(c3ccccc31)C1C(=O)NC(=O)C12)c1ccncc1 (stereo not drawn)
2. O=[N+]([O-])c1ccc2[nH]c(=S)n(/C=C(/c3ccc(Cl)cc3Cl)S(=O)(=O)Cc3ccc(Cl)cc3Cl)c2c1

1: 2.98; 2: 101
